# subject-of-test: EGFR wildtype (WT) (Homo sapiens, UniProt P00533)
# Sequence (P00533 25-1210): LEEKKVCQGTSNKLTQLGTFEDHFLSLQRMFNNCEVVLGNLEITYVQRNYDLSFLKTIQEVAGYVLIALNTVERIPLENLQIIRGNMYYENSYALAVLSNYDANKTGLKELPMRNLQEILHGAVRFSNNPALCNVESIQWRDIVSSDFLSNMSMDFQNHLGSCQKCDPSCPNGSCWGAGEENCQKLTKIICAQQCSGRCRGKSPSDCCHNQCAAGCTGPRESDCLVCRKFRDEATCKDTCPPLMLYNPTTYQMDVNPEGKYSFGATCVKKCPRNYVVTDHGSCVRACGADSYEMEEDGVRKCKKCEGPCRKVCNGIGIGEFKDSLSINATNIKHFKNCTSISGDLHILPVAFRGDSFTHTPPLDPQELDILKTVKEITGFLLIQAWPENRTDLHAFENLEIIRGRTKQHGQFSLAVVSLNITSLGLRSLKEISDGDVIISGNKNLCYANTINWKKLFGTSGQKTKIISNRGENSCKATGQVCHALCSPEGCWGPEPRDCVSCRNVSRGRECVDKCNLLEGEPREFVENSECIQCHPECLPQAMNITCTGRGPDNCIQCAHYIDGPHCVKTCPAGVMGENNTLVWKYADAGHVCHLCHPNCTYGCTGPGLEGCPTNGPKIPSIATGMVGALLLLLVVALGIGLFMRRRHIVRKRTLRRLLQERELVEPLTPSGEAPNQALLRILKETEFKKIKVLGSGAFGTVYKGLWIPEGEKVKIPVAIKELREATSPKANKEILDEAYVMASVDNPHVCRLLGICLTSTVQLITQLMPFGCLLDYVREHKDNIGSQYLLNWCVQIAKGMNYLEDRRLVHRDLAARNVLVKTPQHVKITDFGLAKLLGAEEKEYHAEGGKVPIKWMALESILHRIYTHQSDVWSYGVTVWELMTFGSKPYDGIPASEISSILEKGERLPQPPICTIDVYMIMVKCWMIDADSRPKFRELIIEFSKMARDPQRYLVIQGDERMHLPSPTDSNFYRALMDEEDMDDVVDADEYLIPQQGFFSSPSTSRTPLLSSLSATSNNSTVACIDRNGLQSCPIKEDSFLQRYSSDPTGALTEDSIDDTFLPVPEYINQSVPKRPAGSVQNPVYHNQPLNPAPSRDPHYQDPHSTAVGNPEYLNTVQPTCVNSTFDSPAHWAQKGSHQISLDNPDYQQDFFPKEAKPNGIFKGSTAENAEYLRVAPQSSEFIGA
# protocol-summary: Biochemical EGFR kinase assay (Lance Ultra TR-FRET), wildtype
# reported-conditions: Km ATP; read-out: IC50 WT, Km ATP
pIC50: −log10 of the molar value.
Outcome: True for pIC50 of at least 6; False for anything lower.

>  <molecule>
FC(F)Cn1cc(-c2nccc(Nc3cc(N[C@H]4CC[C@@H](F)CC4)c(-c4ccn(CC(F)(F)F)n4)cn3)n2)cn1 [Example 339]

>  <qualitative-label>
True

$$$$
>  <molecule>
C[C@]1(O)CC[C@@H](Nc2nc(Nc3ccnc(-c4cnn(S(=O)(=O)C5CC5)c4)c3)ncc2-c2ccn(C(F)F)n2)CC1 [Example 355]

>  <qualitative-label>
True

$$$$
>  <molecule>
O=S(=O)(C1CC1)n1cc(-c2cc(Nc3ncc(-c4ccn(CCC(F)(F)F)n4)c(N[C@H]4CC[C@@H](F)CC4)n3)ccn2)cn1 [Example 367]

>  <qualitative-label>
False

$$$$
>  <molecule>
Cc1nn(CC(F)(F)F)cc1-c1nccc(Nc2cc(N[C@H]3CC[C@@](C)(O)CC3)c(-c3cc(C(F)(F)F)n(C)n3)cn2)n1 [Example 332]

>  <qualitative-label>
True

$$$$
>  <molecule>
C[C@]1(O)CC[C@@H](Nc2nc(Nc3ccnc(-c4cnn(S(=O)(=O)C5CC5)c4)c3)ncc2-c2ccn(CC(F)F)n2)CC1 [Example 357]

>  <qualitative-label>
True

$$$$
